Cited source for all entries: patent US20260015350A1

- TARGET ENTITY: KRas^G12R (Homo sapiens, UniProt P01116, G12R)
- Construct: Biotinylated KRas (corresponding to amino acids 1-169, produced at Accelegan Inc.); biotin (biotinylated); purchased Accelegan Inc
- Sequence (P01116 1-169 isoform P01116-2 G12R): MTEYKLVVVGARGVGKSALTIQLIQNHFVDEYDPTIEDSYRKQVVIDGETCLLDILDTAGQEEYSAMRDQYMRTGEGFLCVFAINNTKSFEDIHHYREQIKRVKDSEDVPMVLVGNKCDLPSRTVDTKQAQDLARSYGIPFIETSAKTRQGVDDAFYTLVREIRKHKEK
- ASSAY: KRas binding assay (TR-FRET tracer displacement), KRas G12R
QUANTITY: IC50 (nM)

MOLECULE	TARGET ENTITY	U	IC50
CCc1cccc2cccc(-c3ncc4c(C5CCCCC5)nc(OCC56CCCN5CCC6)nc4c3F)c12	KRas^G12R (Homo sapiens, UniProt P01116, G12R)	nM	30000
CCc1c(F)ccc2cc(O)cc(-c3ncc4c(N5CC6CCC(COC)(C6)C5)nc(OC[C@@]56CCCN5C[C@H](F)C6)nc4c3F)c12 (stereo partly drawn)	KRas^G12R (Homo sapiens, UniProt P01116, G12R)	nM	9
CCc1c(F)ccc2cc(O)cc(-c3ncc4c(N5CCCC(C6(O)CCC6)C5)nc(OC[C@@]56CCCN5C[C@H](F)C6)nc4c3F)c12 (stereo partly drawn)	KRas^G12R (Homo sapiens, UniProt P01116, G12R)	nM	7

[a] CCc1c(F)ccc2cc(O)cc(-c3ncc4c(N5CCC(O)C(F)(F)CC5)nc(OC[C@@]56CCCN5C[C@H](F)C6)nc4c3F)c12 (stereo partly drawn)
[b] CCc1c(F)ccc2cc(O)cc(-c3ncc4c(N5CCC[C@@](C)(O)C5)nc(OCC5(CN(C)C)CC56CCC6)nc4c3F)c12 (stereo partly drawn)
stdin: Between the two listed entries a and b , which has its IC50 at the higher number? Answer by quoting the chosen item's label.
stdout: b
